System: DIO2 (gene 1734)
Test: CCTE_GLTED_hDIO2: CCTE's human Deiodinase 2 (DIO2) Inhibition Assay, Great Lakes Toxicology and Ecology Division (GLTED) Lab (AID 2284050)
Active and inactive are the calls of the source. How the source made its calls: active means hit-call score of the fitted dose curve at least 0.9, where 1 is the maximum; inconclusive means response in the unintended direction; inactive means score below 0.9.
Pick from active, inactive when you respond.

Past entries and their recorded results:
Compound: CCCCCCCCCCCCN
Assigned Category: inactive

Compound: CCC(=O)/C=C/C1C(C)=CCCC1(C)C (stereo not given)
Assigned Category: active

Compound: CCCCCCCCCCCCCCCC(=O)OC[C@H](O)[C@H]1OC(=O)C(O)=C1O
Assigned Category: active

Compound: CCCCCCCCCCCCCC(=O)O
Assigned Category: active

Then there is this compound:
Hi team, can someone confirm the assay call for CC(C)=CCCC(C)=CCCC(C)=CCO ?
active

* * *

Read-out: Monokine induced gamma interferon (MIG), CXCL9 (gene 4283)
Test: BSK_hDFCGF_MIG: BioMAP Diversity Plus: hDFCGF Assay for Monokine induced gamma interferon (MIG) Biomarker Activity (AID 2283063)
Settings: primary human foreskin fibroblasts; actives raise or lower the signal
The source made the active and inactive calls. Rule for the calls: active = hit-call score of the fitted dose curve at least 0.9, where 1 is the maximum; inactive = score below 0.9.
Pick from active, inactive when you respond.

Compound: OC1OC[C@@H](O)[C@H](O)[C@H]1O (stereo partly specified)
Assigned Category: inactive
//
Compound: Cc1cc(C2(c3cc(C)c(O)cc3C)OS(=O)(=O)c3ccccc32)c(C)cc1O
Assigned Category: inactive
//
Compound: O=C(O)C[C@H](O)C[C@H](O)/C=C/c1c(C2CC2)nc2ccccc2c1-c1ccc(F)cc1
Assigned Category: inactive

Hi team, can someone confirm the assay call for C=CCOC(=O)CCC1CCCCC1 ?
inactive

Hi team, can someone confirm the assay call for CC(=O)[C@H]1CC[C@H]2[C@@H]3CC=C4C[C@@H](O)CC[C@]4(C)[C@H]3CC[C@]12C ?
inactive

Hi team, can someone confirm the assay call for CC(=O)O[C@]1(C(C)=O)CC[C@H]2[C@@H]3C[C@H](C)C4=CC(=O)CC[C@]4(C)[C@H]3CC[C@@]21C ?
inactive

* * *

Test: BSK_3C_uPAR: BioMAP Diversity Plus: 3C Assay for Urokinase-type plasminogen activator receptor (uPAR) Biomarker Activity (AID 2282998)
Details: BioMAP 3C HUVEC, uPAR biomarker ELISA; actives raise or lower the signal
The source made the active and inactive calls. Rule for the calls: active = hit-call score of the fitted dose curve at least 0.9, where 1 is the maximum; inactive = score below 0.9.
Measure Name: AC50

Check out these entries, answers already filled in.
Compound: O=C=NC1CCC(CC2CCC(N=C=O)CC2)CC1 (configuration not stated)
AC50: inactive
//
Compound: COC(=O)c1ccc(C)cc1
AC50: inactive
//
Compound: CC(C)(COC(=O)c1ccccc1)COC(=O)c1ccccc1
AC50: 34 µM (active)
//
Compound: O=C1CCCCCCCCCCCCCCO1
AC50: 20 µM (active)
//
Compound: C[C@H]1C[C@@H]2[C@H]([C@@H](O)C[C@@]3(C)[C@H]2CC[C@]3(O)C(=O)CO)[C@@]2(C)C=CC(=O)C=C12
AC50: inactive
//
Compound: CC(=O)[C@H]1CC[C@H]2[C@@H]3CC=C4C[C@@H](O)CC[C@]4(C)[C@H]3CC[C@]12C
AC50: inactive
//
Compound: CC[Si](OC(C)=O)(OC(C)=O)OC(C)=O
AC50: inactive
//
Compound: CC(=O)Nc1ccccc1O
AC50: inactive
//
Compound: COc1cc(C=O)ccc1OC(=O)C(C)C
AC50: inactive
//
Compound: CN(CCOc1ccc(CC2SC(=O)NC2=O)cc1)c1ccccn1 (configuration not stated)
AC50: 6.93 µM (active)

Fill in AC50 for record CCCCCCCCC=O
inactive

Fill in AC50 for record O=C1OC2(c3cc(Br)c(O)c(Br)c3Oc3c2cc(Br)c(O)c3Br)c2c(Cl)c(Cl)c(Cl)c(Cl)c21
1.86 µM (active)

Origin of the recorded values: PubChem BioAssay (EPA / NIEHS)
